Values from patent US10858322B2

assay: Approximate solubility test of crystal form A; type: physicochemical; conditions: organic solvent or mixture, thermodynamic from solid; Isopropyl acetate, room temperature (20 to 30° C.)
readout_kind: solubility

The reported solubility of the molecule CC(C)C(=O)N1CC2(C1)C(=O)N(Cc1nc3c(n1CCCC(F)(F)F)CCCC3)c1ccccc12 [Crystal Form A] was 18 to 20.5 mg/mL

* * *

test: Approximate solubility test of crystal form A; type: physicochemical; conditions: organic solvent or mixture, thermodynamic from solid; 2-Methyltetrahydrofuran, room temperature (20 to 30° C.)
readout_kind: solubility

The reported solubility of the compound CC(C)C(=O)N1CC2(C1)C(=O)N(Cc1nc3c(n1CCCC(F)(F)F)CCCC3)c1ccccc12 [Crystal Form A] was 45 to 56.7 mg/mL

* * *

test: Approximate solubility test of crystal form A; assay type: physicochemical; conditions: organic solvent or mixture, thermodynamic from solid; Methyl isobutyl ketone, room temperature (20 to 30° C.)
readout_kind: solubility

The reported solubility of the molecule CC(C)C(=O)N1CC2(C1)C(=O)N(Cc1nc3c(n1CCCC(F)(F)F)CCCC3)c1ccccc12 [Crystal Form A] was 22.9 to 25.5 mg/mL

* * *

assay: Approximate solubility test of crystal form A; format: physicochemical; conditions: organic solvent or mixture, thermodynamic from solid; Dioxane, room temperature (20 to 30° C.)
readout_kind: solubility

The reported solubility of the compound CC(C)C(=O)N1CC2(C1)C(=O)N(Cc1nc3c(n1CCCC(F)(F)F)CCCC3)c1ccccc12 [Crystal Form A] was 45 to 56.5 mg/mL

* * *

test: Approximate solubility test of crystal form A; type: physicochemical; details: organic solvent or mixture, thermodynamic from solid; Ethyl acetate, room temperature (20 to 30° C.)
readout_kind: solubility

The reported solubility of the compound CC(C)C(=O)N1CC2(C1)C(=O)N(Cc1nc3c(n1CCCC(F)(F)F)CCCC3)c1ccccc12 [Crystal Form A] was 29 to 34 mg/mL

* * *

Test: RSV long CPE assay, CC50 (in vitro toxicity)
Format: cell-based
Conditions: human; Hep2 cells, 5 days, CCK-8 readout, n = 7
Experimental: RSV long CPE assay Experimental Purpose: The EC50 and CC50 values of anti-RSV respiratory syncytial virus compounds were detected by cytopathology. Experimental Materials: Cell Line: Hep2 Experimental Procedures and Methods: a) Cell Inoculation (Hep2 cell) 1) The cell culture medium was removed and washed with 10 mL of PBS; 2) The preheated trypsin was added to the cleaned culture flask and rotating the flask to allow the trypsin to uniformly cover the culture flask. […] 4) The data were analyzed.
readout_kind: CC50 at 5 days

The reported CC50 at 5 days of the molecule CC(C)C(=O)N1CC2(C1)C(=O)N(Cc1nc3c(n1CCCC(F)(F)F)CCCC3)c1ccccc12 [Compound of formula (I)] was > 100 µM

* * *

experiment: Approximate solubility test of crystal form A; format: physicochemical; conditions: organic solvent or mixture, thermodynamic from solid; Ethanol, room temperature (20 to 30° C.)
readout_kind: solubility

The reported solubility of the molecule CC(C)C(=O)N1CC2(C1)C(=O)N(Cc1nc3c(n1CCCC(F)(F)F)CCCC3)c1ccccc12 [Crystal Form A] was 42 to 52.5 mg/mL

* * *

experiment: Approximate solubility test of crystal form A; type: physicochemical; conditions: methanol-water (3:1), aqueous with cosolvent or surfactant or cyclodextrin, thermodynamic from solid; Methanol-H2O (3:1), room temperature (20 to 30° C.)
readout_kind: solubility

The reported solubility of the molecule CC(C)C(=O)N1CC2(C1)C(=O)N(Cc1nc3c(n1CCCC(F)(F)F)CCCC3)c1ccccc12 [Crystal Form A] was 45 to 56.5 mg/mL

* * *

experiment: Approximate solubility test of crystal form A; format: physicochemical; details: organic solvent or mixture, thermodynamic from solid; Toluene, room temperature (20 to 30° C.)
readout_kind: solubility

The reported solubility of the compound CC(C)C(=O)N1CC2(C1)C(=O)N(Cc1nc3c(n1CCCC(F)(F)F)CCCC3)c1ccccc12 [Crystal Form A] was 28 to 32.5 mg/mL

* * *

test: Approximate solubility test of crystal form A; assay type: physicochemical; conditions: organic solvent or mixture, thermodynamic from solid; 2-Butanone, room temperature (20 to 30° C.)
readout_kind: solubility

The reported solubility of the compound CC(C)C(=O)N1CC2(C1)C(=O)N(Cc1nc3c(n1CCCC(F)(F)F)CCCC3)c1ccccc12 [Crystal Form A] was 56.9 to 75.8 mg/mL

* * *

assay: Approximate solubility test of crystal form A; format: physicochemical; details: organic solvent or mixture, thermodynamic from solid; Methanol, room temperature (20 to 30° C.)
readout_kind: solubility

The reported solubility of the compound CC(C)C(=O)N1CC2(C1)C(=O)N(Cc1nc3c(n1CCCC(F)(F)F)CCCC3)c1ccccc12 [Crystal Form A] was 115 to 231 mg/mL

* * *

system: RSV respiratory syncytial virus (Along strain); test: microbe, parasite or virus in culture; type: cell-based; conditions: human respiratory syncytial virus, HEp-2, 120 h; Hep2 cells, RSV A long strain, 5 days, CCK-8 readout, n = 7; read-out: CPE assay EC50
readout_kind: pEC50
One number for each entry, as −log10 of the molar value.

The reported pEC50 of the molecule CC(C)C(=O)N1CC2(C1)C(=O)N(Cc1nc3c(n1CCCC(F)(F)F)CCCC3)c1ccccc12 was 8.15

* * *

test: Approximate solubility test of crystal form A; assay type: physicochemical; conditions: acetone-water (1:2), aqueous with cosolvent or surfactant or cyclodextrin, thermodynamic from solid; Acetone-H2O (1:2), room temperature (20 to 30° C.)
readout_kind: solubility

The reported solubility of the molecule CC(C)C(=O)N1CC2(C1)C(=O)N(Cc1nc3c(n1CCCC(F)(F)F)CCCC3)c1ccccc12 [Crystal Form A] was < 2000 µg/mL

* * *

test: Approximate solubility test of crystal form A; assay type: physicochemical; conditions: organic solvent or mixture, thermodynamic from solid; Methyl tert-butyl ether, room temperature (20 to 30° C.)
readout_kind: solubility

The reported solubility of the compound CC(C)C(=O)N1CC2(C1)C(=O)N(Cc1nc3c(n1CCCC(F)(F)F)CCCC3)c1ccccc12 [Crystal Form A] was 3000 to 3700 µg/mL

* * *

experiment: Approximate solubility test of crystal form A; assay type: physicochemical; conditions: acetonitrile-water (1:1), aqueous with cosolvent or surfactant or cyclodextrin, thermodynamic from solid; Acetonitrile-H2O (1:1), room temperature (20 to 30° C.)
readout_kind: solubility

The reported solubility of the compound CC(C)C(=O)N1CC2(C1)C(=O)N(Cc1nc3c(n1CCCC(F)(F)F)CCCC3)c1ccccc12 [Crystal Form A] was 46 to 58 mg/mL

* * *

assay: Approximate solubility test of crystal form A; assay type: physicochemical; conditions: organic solvent or mixture, thermodynamic from solid; Acetone, room temperature (20 to 30° C.)
readout_kind: solubility

The reported solubility of the compound CC(C)C(=O)N1CC2(C1)C(=O)N(Cc1nc3c(n1CCCC(F)(F)F)CCCC3)c1ccccc12 [Crystal Form A] was 45.9 to 57.4 mg/mL

* * *

assay: Approximate solubility test of crystal form A; type: physicochemical; conditions: organic solvent or mixture, thermodynamic from solid; n-Heptane, room temperature (20 to 30° C.)
readout_kind: solubility

The reported solubility of the molecule CC(C)C(=O)N1CC2(C1)C(=O)N(Cc1nc3c(n1CCCC(F)(F)F)CCCC3)c1ccccc12 [Crystal Form A] was < 2 mg/mL

* * *

assay: Approximate solubility test of crystal form A; format: physicochemical; conditions: organic solvent or mixture, thermodynamic from solid; Cyclohexane, room temperature (20 to 30° C.)
readout_kind: solubility

The reported solubility of the compound CC(C)C(=O)N1CC2(C1)C(=O)N(Cc1nc3c(n1CCCC(F)(F)F)CCCC3)c1ccccc12 [Crystal Form A] was < 2000 µg/mL

* * *

experiment: Approximate solubility test of crystal form A; format: physicochemical; conditions: water, thermodynamic from solid; H2O, room temperature (20 to 30° C.)
readout_kind: solubility

The reported solubility of the compound CC(C)C(=O)N1CC2(C1)C(=O)N(Cc1nc3c(n1CCCC(F)(F)F)CCCC3)c1ccccc12 [Crystal Form A] was < 2000 µg/mL
